- Assay overview: MRT (0 to infinity) in Sprague-Dawley rat at 20 mg/kg, po measured for 15 to 1440 mins by LC-MS/MS analysis
- Type: ADME, organism-based
- Condition set: in vivo, time 15-1440 min
Measured property: MRT inf
Form field: result (number plus unit)

Lookup result for CCC(CC)O[C@@H]1C=C(C(=O)O)C[C@H](NCc2ccc(OCc3cccc(B(O)O)c3)cc2Cl)[C@H]1NC(C)=O ; measured MRT inf: 0.91 h

Lookup result for CCC(CC)O[C@@H]1C=C(C(=O)O)C[C@H](NCc2ccc(OCc3cccc(B(O)O)c3)cc2C)[C@H]1NC(C)=O ; measured MRT inf: 1.95 h
